# ASSAY EXPLANATION: Plasma stability in human plasma
# Format: in vitro ADME
# SETTINGS: human, pooled human plasma; 5 min
READOUT: remaining at 5 min, 1 μM

• CC(=O)Oc1cccc2[nH]cc(CCN(C)C)c12.O=C(O)/C=C/C(=O)O = 0.2%

Record remaining at 5 min, 1 μM for all entries; do not skip any.
1. CN(C)CCc1c[nH]c2cccc(OP(=O)(O)O)c12 [Compound 8, 4-phosphoryloxy-N,N-dimethyltryptamine, reference compound]
2. CN(C)CCc1c[nH]c2cccc(OC(=O)C3CC3)c12.O=C(O)/C=C/C(=O)O
3. CN(C)CCc1c[nH]c2cccc(OCc3ccccc3)c12
4. CCOC(=O)Oc1cccc2[nH]cc(CCN(C)C)c12.O=C(O)/C=C/C(=O)O

["135%", "1.5%", "103%", "0%"]

###

# ASSAY EXPLANATION: Thermal degradation of psilocin salts at 60 °C
# SETTINGS: half-life
Provide the recorded half-life at 144 h, 2 mg/mL freebase psilocin for the entries that follow.
Answers are plain numbers, in h.

• CN(C)CCc1c[nH]c2cccc(O)c12.O=C(O)c1ccccc1 [Compound 9c] = 33.3
• CN(C)CCc1c[nH]c2cccc(O)c12.O=P(O)(O)O [Compound 9e] = 66.7

Proceeding to the next compound to report its half-life at 144 h, 2 mg/mL freebase psilocin.
So, CN(C)CCc1c[nH]c2cccc(O)c12.Cl [Compound 9a] ? Its half-life at 144 h, 2 mg/mL freebase psilocin was 50

###

# ASSAY EXPLANATION: Plasma stability in human plasma
# Assay type: in vitro ADME
# SETTINGS: human, pooled human plasma; 240 min
Provide the recorded remaining at 4 h, 1 μM for the entries that follow.

Some solved cases for reference:
• CC(=O)Oc1cccc2[nH]cc(CCN(C)C)c12.O=C(O)/C=C/C(=O)O [Compound 4a, 4-acetoxy-N,N-dimethyltryptamine] = 0.2%
• CN(C)CCc1c[nH]c2cccc(OCc3ccccc3)c12 [Compound 3, 4-Benzyloxy-N,N-dimethyltryptamine] = 107%
• CN(C)CCc1c[nH]c2cccc(OP(=O)(O)O)c12 [Compound 8, 4-phosphoryloxy-N,N-dimethyltryptamine, reference compound] = 122%
• CCOC(=O)Oc1cccc2[nH]cc(CCN(C)C)c12.O=C(O)/C=C/C(=O)O [Compound 4i] = 0%

Proceeding to the next compound to report its remaining at 4 h, 1 μM.
So, CN(C)CCc1c[nH]c2cccc(OC(=O)C3CC3)c12.O=C(O)/C=C/C(=O)O [Compound 4g] ? Its remaining at 4 h, 1 μM was 0%

###

Provide the recorded % found in microsome suspension for the entries that follow.
# ASSAY EXPLANATION: Peak area in microsome suspension compared with compounds in solution
# Format: in vitro ADME, human
# SETTINGS: peak area 15 seconds after addition of NADPH versus same amount (125 nM) in H2O/EtOH
Give bare numbers, in %.

• CCCC(=O)Oc1cccc2[nH]cc(CCN(C)C)c12.O=C(O)/C=C/C(=O)O [Compound 4b] = 0.3
• CN(C)CCc1c[nH]c2cccc(OC(=O)c3ccccc3)c12.O=C(O)/C=C/C(=O)O [Compound 4h] = 44
• CC(=O)Oc1cccc2[nH]cc(CCN(C)C)c12.O=C(O)/C=C/C(=O)O [Compound 4a, 4-acetoxy-N,N-dimethyltryptamine] = 0.0
• CCCCC(=O)Oc1cccc2[nH]cc(CCN(C)C)c12.O=C(O)/C=C/C(=O)O [Compound 4c] = 0.2
• CN(C)CCc1c[nH]c2cccc(OS(=O)(=O)O)c12 [Compound 6] = 15

Record % found in microsome suspension for all entries; do not skip any.
1. CN(C)CCc1c[nH]c2cccc(OP(=O)(O)O)c12 [Compound 8, 4-phosphoryloxy-N,N-dimethyltryptamine, reference compound]
2. CN(C)CCc1c[nH]c2cccc(OCc3ccccc3)c12 [Compound 3, 4-Benzyloxy-N,N-dimethyltryptamine]

1: 81.5; 2: 88.5
